- Tested on: HCC 2998
- experiment: Anticancer activity against human HCC2998 cells after 48 hrs
- Type: functional
- reported_conditions: HCC 2998, 48 h
experimental_endpoint: GI50

COc1ccc(C2CC(c3cc(Cl)c(C)cc3O)=NN2c2ccc(S(N)(=O)=O)cc2)cc1OC (centres undefined)
2720 nM
Cc1cc(O)c(C2=NN(c3ccc(S(N)(=O)=O)cc3)C(c3ccccc3Cl)C2)cc1Cl (centres undefined)
2100 nM
Cc1cc(O)c(C2=NN(c3ccc(S(N)(=O)=O)cc3)C(c3ccccc3O)C2)cc1Cl (centres undefined)
2130 nM

Attention now shifts to the item below.
For Cc1cc(O)c(C2=NN(c3ccc(S(N)(=O)=O)cc3)C(/C=C/c3ccccc3)C2)cc1Cl (centres undefined) the compound record lists GI50 as 9890 nM

====

- System: NCI-H23
- experiment: Anticancer activity against human NCI-H23 cells after 48 hrs
- Format: functional
- reported_conditions: NCI-H23, 48 h
experimental_endpoint: TGI
Mention the unit after the number when you answer.

Use these answered entries as a reference point.
Cc1cc(O)c(C2=NN(c3ccc(S(N)(=O)=O)cc3)C(/C=C/c3ccccc3)C2)cc1Cl (centres undefined)
12.5 µM
Cc1cc(O)c(C2=NN(c3ccc(S(N)(=O)=O)cc3)C(c3ccccc3Cl)C2)cc1Cl (centres undefined)
3.58 µM
COc1ccc(C2CC(c3cc(Cl)c(C)cc3O)=NN2c2ccc(S(N)(=O)=O)cc2)cc1OC (centres undefined)
13.6 µM

Okay, next one:
For this compound ( Cc1cc(O)c(C2=NN(c3ccc(S(N)(=O)=O)cc3)C(c3ccccc3O)C2)cc1Cl (centres undefined) ), measured TGI is 5.03 µM

====

- System: BT-549
- experiment: Anticancer activity against human BT549 cells after 48 hrs
- Assay type: functional
- reported_conditions: BT-549, 48 h
experimental_endpoint: TGI (µM)
One number for each entry, in µM.

Example entries and their recorded answers appear below.
COc1ccc(C2CC(c3cc(Cl)c(C)cc3O)=NN2c2ccc(S(N)(=O)=O)cc2)cc1OC (centres undefined)
13.4
Cc1cc(O)c(C2=NN(c3ccc(S(N)(=O)=O)cc3)C(/C=C/c3ccccc3)C2)cc1Cl (centres undefined)
21.3
Cc1cc(O)c(C2=NN(c3ccc(S(N)(=O)=O)cc3)C(c3ccccc3Cl)C2)cc1Cl (centres undefined)
4.74

Next item in the queue.
The reported TGI value, BT-549, for Cc1cc(O)c(C2=NN(c3ccc(S(N)(=O)=O)cc3)C(c3ccccc3O)C2)cc1Cl (centres undefined) reads 8.18

====

Can you tell me GI50 for the items I'm about to list?
- Tested on: OVCAR-8
- experiment: Anticancer activity against human OVCAR8 cells after 48 hrs
- Type: functional
- reported_conditions: OVCAR-8, 48 h
One number for each entry, in µM.

Recorded results for 3 molecules are shown here.
Cc1cc(O)c(C2=NN(c3ccc(S(N)(=O)=O)cc3)C(/C=C/c3ccccc3)C2)cc1Cl (centres undefined)
3.03
Cc1cc(O)c(C2=NN(c3ccc(S(N)(=O)=O)cc3)C(c3ccccc3Cl)C2)cc1Cl (centres undefined)
2.94
COc1ccc(C2CC(c3cc(Cl)c(C)cc3O)=NN2c2ccc(S(N)(=O)=O)cc2)cc1OC (centres undefined)
3.39

Could you now consider this next molecule?
Form field GI50, entry Cc1cc(O)c(C2=NN(c3ccc(S(N)(=O)=O)cc3)C(c3ccccc3O)C2)cc1Cl (centres undefined) : 3.89
